Values from paper PMC7763008

- tested target: P-gp (ABCB1) efflux pump in MDR Colo 320 colon adenocarcinoma cells (Homo sapiens, UniProt P08183)
- Sequence (P08183 whole entry): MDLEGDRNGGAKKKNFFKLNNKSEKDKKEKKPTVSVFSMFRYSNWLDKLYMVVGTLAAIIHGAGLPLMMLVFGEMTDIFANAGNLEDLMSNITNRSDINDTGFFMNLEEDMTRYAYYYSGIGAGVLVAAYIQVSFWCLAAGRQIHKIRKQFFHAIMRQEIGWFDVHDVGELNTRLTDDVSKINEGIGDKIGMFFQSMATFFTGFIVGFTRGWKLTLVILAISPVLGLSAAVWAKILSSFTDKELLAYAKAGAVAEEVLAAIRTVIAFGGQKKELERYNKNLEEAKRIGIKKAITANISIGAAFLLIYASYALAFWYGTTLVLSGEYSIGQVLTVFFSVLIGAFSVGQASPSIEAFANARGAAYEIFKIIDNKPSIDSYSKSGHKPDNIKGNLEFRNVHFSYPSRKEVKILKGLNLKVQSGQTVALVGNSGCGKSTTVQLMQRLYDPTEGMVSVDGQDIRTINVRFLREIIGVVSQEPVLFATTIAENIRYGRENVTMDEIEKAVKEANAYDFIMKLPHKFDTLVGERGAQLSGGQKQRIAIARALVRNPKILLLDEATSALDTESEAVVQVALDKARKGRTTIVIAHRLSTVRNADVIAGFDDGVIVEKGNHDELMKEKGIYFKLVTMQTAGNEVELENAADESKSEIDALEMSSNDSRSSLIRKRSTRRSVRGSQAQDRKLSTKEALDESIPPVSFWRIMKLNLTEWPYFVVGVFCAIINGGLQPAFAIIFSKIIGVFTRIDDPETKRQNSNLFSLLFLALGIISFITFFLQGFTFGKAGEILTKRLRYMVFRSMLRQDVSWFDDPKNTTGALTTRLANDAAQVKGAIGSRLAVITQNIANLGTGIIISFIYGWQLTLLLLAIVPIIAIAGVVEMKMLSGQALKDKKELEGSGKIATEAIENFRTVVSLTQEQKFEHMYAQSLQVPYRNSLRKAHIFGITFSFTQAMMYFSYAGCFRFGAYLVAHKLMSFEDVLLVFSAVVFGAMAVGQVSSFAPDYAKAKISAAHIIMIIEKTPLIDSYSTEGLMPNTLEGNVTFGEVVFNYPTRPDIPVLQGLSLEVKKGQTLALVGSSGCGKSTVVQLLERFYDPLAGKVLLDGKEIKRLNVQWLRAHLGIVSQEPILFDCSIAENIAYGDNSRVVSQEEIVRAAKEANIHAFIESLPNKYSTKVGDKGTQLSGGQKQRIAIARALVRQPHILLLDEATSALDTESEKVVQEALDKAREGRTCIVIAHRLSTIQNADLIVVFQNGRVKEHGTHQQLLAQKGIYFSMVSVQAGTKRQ
- experiment description: Rhodamine 123 accumulation assay (MDR efflux pump inhibition, flow cytometry)
- assay context: 2 μM compound; FAR of compound / FAR of verapamil (20 μM) x 100
In this section we review reported FAR Quotient (%) values for a set of compounds.

COc1ccc(-c2sc3ccccc3c(=O)c2CC(S(=O)(=O)C(F)(F)F)S(=O)(=O)C(F)(F)F)cc1 [Compound 2] = 29.67%
COc1ccc(-c2oc3ccccc3c(=O)c2CC(S(=O)(=O)C(F)(F)F)S(=O)(=O)C(F)(F)F)cc1 [Compound 1] = 34.92%

Proceeding to the next compound to report its FAR Quotient (%).
Q. Recorded FAR Quotient (%) for COc1ccc2cc(-c3oc4ccccc4c(=O)c3CC(S(=O)(=O)C(F)(F)F)S(=O)(=O)C(F)(F)F)ccc2c1 [Compound 4] , please?
A. 45.42%
